Where do these numbers come from? They come from patent US20060057230A1.

assay: Plasma free catechin pharmacokinetics after oral Polyphenon E, fasting/fed cross-over; assay type: in vivo, human; conditions: oral Polyphenon E (400 mg EGCG), Fasting
MEASURED QUANTITY: Maximum plasma free catechin concentrations (ng/mL)
Answers are plain numbers, in ng/mL.

COMPOUND: Oc1cc(O)c2c(c1)O[C@H](c1ccc(O)c(O)c1)[C@H](O)C2 [EC, epicatechin]
UNIT NAME: ng/mL
VALUE OBSERVED: 5.6
--
COMPOUND: O=C(O[C@@H]1Cc2c(O)cc(O)cc2O[C@@H]1c1ccc(O)c(O)c1)c1cc(O)c(O)c(O)c1 [ECG, epicatechin gallate]
UNIT NAME: ng/mL
VALUE OBSERVED: 87.6

Q: Which value of Maximum plasma free catechin concentrations has been reported for O=C(O[C@@H]1Cc2c(O)cc(O)cc2O[C@@H]1c1cc(O)c(O)c(O)c1)c1cc(O)c(O)c(O)c1 [EGCG, epigallocatechin gallate] in the records?
Result: 799
